- Test system: Aβ production in SK-N-BE(2) neuroblastoma cells
- assayProtocol: Test Example 3: Aβ production inhibition in cell (Aβ40 ELISA, SK-N-BE(2))
- statedConditions: Homo sapiens, SKNBE2, 6 h, read-out: Test Example 3 IC50, SK-N-BE(2) cells, 6 hours, Aβ40 ELISA normalized by viability
pIC50: −log10 of the molar value. Counter-ions that a name gives are not always drawn.
Threshold-based label: pIC50 under 6 gives TRUE, pIC50 not under 6 gives FALSE.

[[record]]
compound = "CC1(C)Oc2ccc(-c3cccc(Cl)c3)cc2C2(COC(N)=N2)C12COC2 (stereo not drawn) [RP 139]"
discretelabel = "FALSE"

[[record]]
compound = "NC1=NC2(CO1)c1cc(-c3cc(Cl)cnc3F)ccc1OCC21COC1 (stereo not drawn) [RP 34]"
discretelabel = "FALSE"

[[record]]
compound = "NC1=NC2(CO1)c1cc(-c3cncnc3)ccc1OCC21CCCO1 (stereo not drawn) [RP 97]"
discretelabel = "TRUE"

[[record]]
compound = "CC1(C)Oc2ccc(-c3cc(F)ncc3Cl)cc2C2(COC(N)=N2)C12COC2 (stereo not drawn) [RP 158]"
discretelabel = "FALSE"

[[record]]
compound = "CC1(C)Oc2ccc(-c3cncc(Cl)c3)cc2C2(COC(N)=N2)C12COC2 (stereo not drawn) [RP 173]"
discretelabel = "FALSE"

[[record]]
compound = "NC1=NC2(CO1)c1cc(-c3cccnc3F)ccc1OCC21CC1 (stereo not drawn) [RP 103]"
discretelabel = "FALSE"

[[record]]
compound = "CC1(C)Oc2ccc(-c3cncnc3)cc2C2(CSC(N)=N2)C12COC2 (stereo not drawn) [RP 54, hydrochloride]"
discretelabel = "FALSE"

[[record]]
compound = "CC#Cc1cncc(-c2ccc3c(c2)C2(COC(N)=N2)C2(COC2)C(CCC)O3)c1 (stereo not drawn) [RP 92]"
discretelabel = "FALSE"

[[record]]
compound = "NC1=NC2(CO1)c1cc(NC(=O)c3ccc(F)cn3)ccc1OCC21CC1 (stereo not drawn) [RP 31]"
discretelabel = "FALSE"

[[record]]
compound = "CC1(C)Oc2ccc(-c3cc(Cl)cnc3Cl)cc2C2(COC(N)=N2)C12COC2 (stereo not drawn) [RP 152]"
discretelabel = "FALSE"

[[record]]
compound = "CCCC1Oc2ccc(-c3cncnc3)cc2C2(COC(N)=N2)C12COC2 (stereo not drawn) [RP 91]"
discretelabel = "FALSE"

[[record]]
compound = "CC1(C)Oc2ccc(-c3cc(F)cc(Cl)c3)cc2C2(COC(N)=N2)C12COC2 (stereo not drawn) [RP 146]"
discretelabel = "FALSE"

[[record]]
compound = "CC#Cc1cncc(-c2ccc3c(c2)C2(COC(N)=N2)C2(COC2)C(CCC(F)(F)F)O3)c1 (stereo not drawn) [RP 96]"
discretelabel = "FALSE"

[[record]]
compound = "N#Cc1cncc(-c2ccc3c(c2)C2(COC(N)=N2)C2(COC2)C2(CCC2)O3)c1 (stereo not drawn) [RP 120]"
discretelabel = "TRUE"

[[record]]
compound = "COc1ncc(Cl)cc1-c1ccc2c(c1)C1(COC(N)=N1)C1(COC1)C(C)(C)O2 (stereo not drawn) [RP 155]"
discretelabel = "FALSE"

[[record]]
compound = "NC1=NC2(CS1)c1cc(Br)ccc1OCC21COC1 (stereo not drawn) [RP 41]"
discretelabel = "TRUE"

[[record]]
compound = "COc1cccc(-c2ccc3c(c2)C2(COC(N)=N2)C2(COC2)C(C)(C)O3)c1 (stereo not drawn) [RP 142]"
discretelabel = "FALSE"

[[record]]
compound = "CC#Cc1cncc(-c2ccc3c(c2)C2(COC(N)=N2)C2(COC2)C(CC2CC2)O3)c1 (stereo not drawn) [RP 205]"
discretelabel = "FALSE"

[[record]]
compound = "NC1=NC2(CO1)c1cc(-c3cncc(OCC(F)(F)F)c3)ccc1OCC21CC1 (stereo not drawn) [RP 58]"
discretelabel = "FALSE"

[[record]]
compound = "NC1=NC2(CO1)c1cc(-c3cncc(C(F)(F)F)c3)ccc1OC1(CCC1)C21COC1 (stereo not drawn) [RP 99]"
discretelabel = "TRUE"

[[record]]
compound = "NC1=NC2(CO1)c1cc(-c3cc(Cl)cnc3F)ccc1OC1(CCC1)C21COC1 (stereo not drawn) [RP 73]"
discretelabel = "FALSE"

[[record]]
compound = "NC1=NC2(CO1)c1cc(-c3cncnc3)ccc1OCC21CC1 (stereo not drawn) [RP 100]"
discretelabel = "FALSE"

[[record]]
compound = "CC#Cc1cncc(-c2ccc3c(c2)C2(COC(N)=N2)C2(CC2)CO3)c1 (stereo not drawn) [RP 111]"
discretelabel = "FALSE"

[[record]]
compound = "CC#Cc1cncc(-c2ccc3c(c2)C2(COC(N)=N2)C2(COC2)CO3)n1 (stereo not drawn) [RP 22]"
discretelabel = "TRUE"

[[record]]
compound = "Cc1cccc(-c2ccc3c(c2)C2(COC(N)=N2)C2(COC2)C2(CCC2)O3)c1 (stereo not drawn) [RP 127]"
discretelabel = "TRUE"

